Target: Substance-P receptor (Homo sapiens)
Sequence (P25103 whole entry): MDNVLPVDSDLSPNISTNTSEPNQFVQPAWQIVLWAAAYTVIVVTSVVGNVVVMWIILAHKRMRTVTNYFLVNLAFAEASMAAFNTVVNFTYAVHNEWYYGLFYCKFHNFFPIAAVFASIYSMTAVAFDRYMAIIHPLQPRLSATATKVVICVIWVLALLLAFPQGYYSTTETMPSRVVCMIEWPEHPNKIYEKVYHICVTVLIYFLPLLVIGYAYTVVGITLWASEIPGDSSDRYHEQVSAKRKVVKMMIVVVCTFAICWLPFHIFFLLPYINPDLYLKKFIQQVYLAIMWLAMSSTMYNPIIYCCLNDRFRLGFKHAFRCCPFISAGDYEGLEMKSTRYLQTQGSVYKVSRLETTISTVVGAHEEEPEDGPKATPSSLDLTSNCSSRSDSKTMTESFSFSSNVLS
MEASUREMENT TYPE: pIC50
Keep it numeric: pIC50 is minus log10 of the concentration in mol/L.

q: Fill blank: measured pIC50 of the compound O=c1oc(Cc2c[nH]c3ccccc23)c(O)n1Cc1cc(C(F)(F)F)cc(C(F)(F)F)c1 is ____.
a: 7.66
